Can you tell me melting point for the items I'm about to list?

CO[C@@H]1CN(CCCNc2nccc(=O)[nH]2)CC[C@@H]1NC(=O)c1cc(Cl)c(N)c2c1OC(C)(C)C2 : 164 °C
CCOC(=O)CCCCn1c(C(=O)NCc2nnc(C)n2-c2sc(CC)cc2C(=O)c2ccccc2Cl)cc2ccccc21 : 85 to 87 °C
O=C(NCCCNc1c([N+](=O)[O-])cnc2ccccc12)c1ccccc1 : 209 to 211 °C

Let us examine a further case.
Task item: Report melting point for Cc1c(C)c2c(c(C)c1O)CCC(C)(C#Cc1cccs1)O2 (centres undefined)
Reply: 133 to 135 °C

Cited source for all entries: a melting point compilation (Tetko et al.; mined from patent text by program, amines drawn as free bases though some values may be those of a salt)
